Test system: OVCAR-4 ovarian
EXPERIMENTAL DETAILS: NCI-60 one-dose screen, 48 h (100 = growth as untreated, 0 = no growth, -100 = all killed)
COND: 10 µM unless noted
Protocol: Growth inhibition of the OVCAR-4 human tumor cell line is measured as a screen for anti-cancer activity. Cells are grown in 96 well plates and exposed to the test compound for 48 hours. Compounds are tested at a single concentration, which is 10^-5 M for most compounds. The reported endpoint is percent growth (GI% or GIPRCNT), where numbers from 0 - 100% represent growth inhibition, and numbers from -100% - 0 represent cell death. For example, a value of 40 represents 60% growth inhibition. […]
This is part of a sample that, as a whole, favours compounds with a hit. Of some 83,000 tested, about 20% had one in any assay.
QUANTITY KIND: growth (%)
Your answer should be a plain number; it is taken to be in %.

Past entries and their recorded results:
INSERT INTO measurements (molecule, u, observed) VALUES
  ('COc1ccc(Cl)cc1NC(N)=S', '%', 94.8),
  ('Cc1ccc2nc(SCn3nnc4ccccc4c3=O)[nH]c2c1', '%', 78.4),
  ('CCCCCCCCCCCCNC(=S)N/N=C/c1ccc(Cl)c(Cl)c1', '%', 99.3),
  ('CCCCCCCCCCC/C=C\C[C@H](O)C/C=C1/C(=O)C=C[C@@H]1C/C=C\CCCC(=O)OC', '%', -1.25),
  ('COc1ccc(Cn2c(SC)nc(=O)n(Cc3ccc(Cl)cc3)c2=O)cc1', '%', 98);

Query: Entry c1ccc2c(c1)Oc1ccccc1C2C1c2ccccc2Oc2ccccc21 : reported growth = ?
Response: 84
